# testTarget: T1, HmtSSB (human mitochondrial SSB) (Homo sapiens, UniProt Q04837 17-148)
# T1 sequence: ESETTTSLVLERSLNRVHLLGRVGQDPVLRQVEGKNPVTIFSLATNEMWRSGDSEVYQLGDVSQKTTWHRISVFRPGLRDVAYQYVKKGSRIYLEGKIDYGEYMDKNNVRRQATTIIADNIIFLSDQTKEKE
# procedureText: fluorescence anisotropy
quantityMeasured: Kd (nM)

>>> print(df.to_string())
                               binder  numericvalue
0  GTTTTCCCAGTCACGAC (ssDNA) [17-mer]          19.2
